Data credit: ChEMBL document CHEMBL1128666

Tested on: Pseudomonas aeruginosa
ASSAY COMMENT: Minimum inhibitory concentration (MIC) was measured against Pseudomonas aeruginosa ATCC 27853.
Format: functional
MIC for assorted compounds

COMPOUND | SYSTEM TESTED | UNIT OF MEASURE | COMPARISON SIGN | MIC
NC[C@H]1O[C@H](O[C@H]2[C@H](O)[C@@H](O[C@H]3O[C@H](CO)[C@@H](O)[C@H](N)[C@H]3O)[C@H](N)C[C@@H]2N)[C@H](O)[C@@H](O)[C@@H]1O [KANAMYCIN] | Pseudomonas aeruginosa | µg/mL | > | 128
CN[C@@H]1[C@@H](O)[C@@H](O[C@@H]2[C@@H](O)[C@H](O[C@H]3O[C@H](CN)[C@@H](O)[C@H](O)[C@H]3O)[C@@H](N)C[C@H]2NC(=O)[C@@H](O)CN)OC[C@]1(C)O [ISEPAMICIN] | Pseudomonas aeruginosa | µg/mL | = | 16
CCN[C@@H]1C[C@H](N)[C@@H](O[C@H]2OC(CN)=CC[C@H]2N)[C@H](O)[C@H]1O[C@H]1OC[C@](C)(O)[C@H](NC)[C@H]1O [NETILMICIN] | Pseudomonas aeruginosa | µg/mL | = | 8
CCNC1CC(N)C(OC2OC(CNC(=O)C(C)N)=CCC2N)C(O)C1OC1OCC(C)(O)C(NC)C1O (stereo unspecified) | Pseudomonas aeruginosa | µg/mL | > | 128
NCC[C@H](O)C(=O)N[C@@H]1C[C@H](N)[C@@H](O[C@H]2O[C@H](CN)[C@@H](O)[C@H](O)[C@H]2O)[C@H](O)[C@H]1O[C@H]1O[C@H](CO)[C@@H](O)[C@H](N)[C@H]1O [AMIKACIN] | Pseudomonas aeruginosa | µg/mL | = | 32
CC(N)C(=O)NC1CC(N)C(OC2OC(CN)C(O)C(O)C2O)C(O)C1OC1OC(CO)C(O)C(N)C1O (stereo unspecified) | Pseudomonas aeruginosa | µg/mL | > | 128
